Values were extracted from patent US20220089663A1.

- TARGET: Cav2.2
- ASSAY_NOTES: cell-based or functional assay
MEASURED_QUANTITY: IC50

INSERT INTO measurements (binder, measured_quantity, value_reported) VALUES
  ('GNDCLGFWSACNPKNDKCCANLVCSSKHKWCKGKL (modifications not checked) [Hs1a]', 'IC50', '> 3000 nM');
